Listing: inhibition of selected molecules
- TARGET_DESC: Substance-P receptor (Homo sapiens) (UniProt P25103)
- Sequence (P25103 whole entry): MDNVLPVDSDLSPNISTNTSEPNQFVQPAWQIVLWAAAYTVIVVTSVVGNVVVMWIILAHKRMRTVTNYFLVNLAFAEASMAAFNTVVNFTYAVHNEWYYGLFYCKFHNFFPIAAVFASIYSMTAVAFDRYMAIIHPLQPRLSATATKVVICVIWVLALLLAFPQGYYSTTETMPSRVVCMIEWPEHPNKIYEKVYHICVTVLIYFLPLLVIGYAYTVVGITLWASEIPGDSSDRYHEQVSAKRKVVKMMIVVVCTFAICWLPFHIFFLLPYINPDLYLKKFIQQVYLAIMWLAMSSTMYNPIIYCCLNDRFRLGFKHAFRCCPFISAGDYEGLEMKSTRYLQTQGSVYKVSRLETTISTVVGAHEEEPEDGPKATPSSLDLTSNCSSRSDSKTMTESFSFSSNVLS
- MEASUREMENT_PROTOCOL: Displacement of [125I]-BH-SP from NK1R (unknown origin) transfected in CHO cells at 10 uM by gamma counting analysis
- Format: cell-based
Residues, ends and D or L forms follow the SMILES beside them.
PARAMETER: inhibition

>  <MOLECULE>
CSCC[C@H](NC(=O)[C@H](CC(C)C)NC(=O)CNC(=O)[C@H](Cc1ccccc1)N(C)C(=O)[C@H](Cc1ccccc1)NC(=O)[C@H](CC(=O)O)NC(=O)[C@H](CC(=O)O)NC(=O)CNC(=O)[C@@H](NC(=O)[C@@H](N)CC(=O)O)[C@@H](C)O)C(N)=O (HELM PEPTIDE1{D.T.G.D.D.F.[meF].G.L.M.[am]}$$$$V2.0)

>  <RECORDED_MEASUREMENT>
< 10%

$$$$
>  <MOLECULE>
CSCC[C@H](NC(=O)[C@H](CC(C)C)NC(=O)CNC(=O)[C@H](Cc1ccccc1)N(C)C(=O)[C@H](Cc1ccccc1)NC(=O)[C@H](C)NC(=O)[C@H](CC(=O)O)NC(=O)[C@H](CCCCN)NC(=O)[C@H](CO)NC(=O)[C@@H]1CCCN1C(=O)[C@@H]1CCC(=O)N1)C(N)=O (HELM PEPTIDE1{[Glp].P.S.K.D.A.F.[meF].G.L.M.[am]}$$$$V2.0)

>  <RECORDED_MEASUREMENT>
48%

$$$$

* * *

- TARGET_DESC: Substance-P receptor (Homo sapiens) (UniProt P25103)
- MEASUREMENT_PROTOCOL: Displacement of [125I]-BH-SP from NK1R (unknown origin) transfected in CHO cells at 10 uM by gamma counting analysis
- Format: cell-based
Residues, ends and D or L forms follow the SMILES beside them.
Measured inhibition values are reported for all entries that follow.

>  <COMPOUND>
CSCC[C@H](NC(=O)[C@H](CC(C)C)NC(=O)CNC(=O)[C@@H](NC(=O)[C@H](Cc1ccccc1)NC(=O)[C@H](CCC(=O)O)NC(=O)[C@H](CC(=O)O)NC(=O)[C@@H]1CCCN1C(=O)[C@H](CC(N)=O)NC(=O)[C@@H]1CCCN1C(=O)[C@@H]1CCC(=O)N1)C(C)C)C(N)=O (HELM PEPTIDE1{[Glp].P.N.P.D.E.F.V.G.L.M.[am]}$$$$V2.0)

>  <inhibition / %>
94

$$$$
>  <COMPOUND>
CSCC[C@H](NC(=O)[C@H](CC(C)C)NC(=O)CNC(=O)[C@H](Cc1ccccc1)N(C)C(=O)[C@H](Cc1ccccc1)NC(=O)[C@H](CC(=O)O)NC(=O)[C@H](CC(N)=O)NC(=O)[C@@H]1CCCN1C(=O)[C@H](CC(=O)O)NC(=O)[C@H](C)NC(=O)[C@@H]1CCC(=O)N1)C(N)=O (HELM PEPTIDE1{[Glp].A.D.P.N.D.F.[meF].G.L.M.[am]}$$$$V2.0)

>  <inhibition / %>
87

$$$$
